- assayExplanation: label from the status in PepcDB records
measuredProperty: protein production

Below: 4 sequences and their reported protein production.
MTKTSSGLKIMFRKIKLEVVRMDLSTIFASLLGLFLSLLTTGVYRYYSKPKIHKTVGVVILNPDKVDAKKIPPNLPEGLRRVTNSLEQELVLKLKKDQQKKAMLLIKISIIGIIISTIGLILGQ ... failed
LLARALYDNCPDCSDELAFSRGDILTILEQHVPESEGWWKCLLHGRQGLAPANRLQIL ... not failed
MFGMTLVNIFVPKLNLYHFVVGVIYLFPMIVIGFKIVKNRNITGLPLFICSGIVGVWAILLHMKMNLGHDYEFFSGPIQETVMLILLLVAVPLSYYVFACSVGCKDTRNMKALKIFPVVAFFIIVITEILGISYYGMANYVLLFSFLLLIGPLLGGLYIWEIMSNIQFKNYTT ... failed
MTPEIAIGLVTALGLGALVGLERQWRQRSSGMATHAMVALGAASFSILPLLLDNEVSVTRMAAQVVSGIGFLGAGVIMRDGLSVRGLSTAASIWSTGAIGVLAGSGFILAACMTTALIVIANLFLPALGRVVDRHTSGEAEQERFYQISVSCEARNEALVRMQLLQRMGDNRLNLQSLESHALKGSGNVEVNAVVFTLHKEDSLVEQMVGELCLAPQVTAASWVMNPAAE ... failed

Below: the item to evaluate.
Exercise: Need protein production of MSLREVALKILIVEDDTDAREWLSTIISNHFPEVWSAGDGEEGERLFGLHAPDVIITDIRMPKLGGLEMLDRIKAGGAKPYVIVISAFSEMKYFIKAIELGVHLFLPKPIEPGRLMETLEDFRHIKLAKEGHHHHHH , thanks.
Key: not failed

====

- assayExplanation: label from the status in PepcDB records
measuredProperty: protein production

MMSIKWEQEWDRIYKEQGEVQSEILPTVKVEKDIFKRFGCKKVMDLGCGTGRHTIYLAQNGYQVFAVDISETGIEVTRAKAEKLNLTNIEFAQLDMRNLSVDDNLMDAIMCVWTSGHGTFEDARKNLKEMYRILRLGEILVIDYVSREDENYGKGTEIEKNTFINNVEGEENIPHHYFAKEEIEELYTDFSDVDINPVDYYFTDSYGTRHTIKAFVVIAVK ... failed
MIELEVVIRTVASFGLLLIAERILGKQTISQMTIFDFIAAITLGAIAAGLAYNTSIKPHNMAISFSIFVLTIFLISFLSIKNRKLRKFFAGDPTVLIQNGKILESNMRKMRYTLDYLNQQLREKEIFNIEEVLFAILETNGQLTVLRKPQFRHVTKQDLMIAVNQEQRLPIELIMDGEIIENNLKQNRLTESWLLEELRKRDIKVKETVYAVLLGNGDIYVDQYKDHISVPMDKE ... failed
MHEWGLSEELKIQTKQMIEIAEKELSIMRNAIDKEDECILCKMEDIHHMLANVQTLAATYYIQAYLSPYTESSSFITTAIQHLSARKHGALIVVERNETLEALIQTGTTLNAHLTAPLLESIFYPGNPLHDGAVLVKNNHIVSAANILPLTKSTEVDPELGTRHRAAIGLSEKSDALILVVSEETGRTSFALNGILYTISL ... not failed
MKLAVISSIYKNDSLSKIKQSLQSLLNQENVTCDIYLYCDGPVSIDIVHFLDSFDQNSLYIFKQEQNRGLAHALNELLNIVLTKEYEYIARMDADDISMPERFVKQIAFMNSHPDIDCLGTWAIEIDDDGKEYFRKKMPITHEECLELFKKRDCMIHPTVMFRRSYFEKAGLYPEDTYFGEDTMMWAKGFKSGCKFANVPEYLFKFRLDSNFFERRRGWKHAKSIYTLRHRVNRMLGFGWKEDCYALLYAMAKLMPKSILDIIYKTVR ... failed
MFKITPFSTQQHVIIQITDTHLLEDPQQEFVGINPERSFHCVMQHIRQHHAQIDAIIHTGDLAQTPTPATYARYLDFMQSFGVPFFHVPGNHDHPEFFPFHQASPSELSIVVLGNWHVILMNSAVVGQVDGWINDQQIQQLRDHLAAHPDTPTIVACHHHPFDMHSKWIDQHKLKNTPDLLATFKHYPQIRAVLCGHVHQESLHRWEHIDFLSSPSTSVQFKPRSDEFAFDTLPSGYRILRLNSDGQFDSNIHRIENMLQNINTEISGY ... failed
MLATPFWYNAALKVLKPVYRWRIKKRAENEMRYQQECRERFGPFQQPQNRHALWFHAVSVGETNAAQPLIEYYLKLGHPVLVTNTTKTGQARAKSLFLKSPYLELFQAVYLPVDQIFLLKQFFELYQPKLLALVETELWPNLIDQAQHYGVPTFLINARLSEKSAQGYARVSALSNAMLSRLTGLLAQDQSTQQRFIGLGLAREKAQVVGNIKFDIDVPLEHHHHHH ... failed
MFLTLSGADMSALIKGSGPHHVVVLNGWFGHAAGWGAFADYLDLGNYTWHFWDYRGYGNRKDDAGEFTLEEISADIVAYIDSIEAEKVSILGHSMGGVFMQKVLADSATPIASLVGISAVAAAGTPFDEDSRKLFTSAGHNPDSRRAIIDFTSGSRQPAAWLDDLTDSTVQNSTPEAVEKYFFAWADCNFAADLGTQDLPVYILTGDLDPAVTKTAVESAFGPIYQNLTVEELHDVGHYAIFEHPLGLAARVLRFLDAV ... failed
MSEALSDSGLPPVQRVVTGHDAHGRAVFKSEDVTPTRMIPSGDASFLLVWTTATVPADNNDETDGRQREAGLTLDGGSVIRVVDMLPGKESPMHRTNSIDYGIVLEGEIELELDDGAKRTVRQGGIIVQRGTNHLWRNTTDKPCRIAFILIEAPAYLHNGQPLPEDKPDHK ... not failed

# per-item lookup of protein production; items listed below
1. MPINQPSGQIKLTNVSLVRLKKARKRFEVACYQNKVQDYRKGIEKDLDEVLQIHQVFMNVSKGLVANKEDLQKCFGTTNVDDVIEEIMHKGEIQLSEKERQLMLNKVNNEMLTIVSAKCINPVSKKRYPPTMIHKALQELKFSPVINKPAKLQALEAIKLLVSKQIIPIVRAKMKVKVAISEPSRQPELIEKISKLIASSPGESTKPELDPWTCTGLIDPVNYRDLMTLCDKKGTVQVLDMAVIDNTTHN
2. MAKILEGPAMKLFNKWGIPVPNYVVIMDPKRLAQLGEANKWLRESKLVVKAHEAIGGRFKLGLVKIGLNLDEAIQASREMLGAKVGTAEVRQVIVAEMLDHDAEFYVSIIGNRDGAELLISKYGGVDIEDNWDSVRRIQIPLDEHPTIEQLTALAKEAGFEGEIAERVGKICSRLVLCFDNEDAQSIEINPLVIRKSDMRFAALDAVMNVDWDARFRHADWDFKPVSEIGRPFTEAEQQIMDIDSRIKGSVKFVEVPGGEIALLTAGGGASVFYADAVVARGGTIANYAEYSGDPPDWAVEALTETICRLPNIKHIIVGGAIANFTDVKATFSGIINGLRESKSKGYLEGVKIWVRRGGPNEAQGLAAIRKLQEEGFDIHVYDRSMPMTDIVDLALKS

Key:
1. failed
2. not failed

# per-item lookup of protein production; items listed below
1. MIVSVVIPVAKEGNTLYERIHLINKHFNSLSSSHKFSYEIILVSDIFHKPTLKAMIRLAKENVAKCLLLTQRIGKGGSIKNAIPFSRGDYIVILDADIPVRPIFINQAVVLAMNLGIDLIIANRVYRTHSLLRRVLSVAYNSLVNLLFKTGLRDHQAGLKILSRRAAKIILMKRTRTDGLAYDTEIVVWAKRHGLRYRAVNVVWREQREGSTIPPMRALLTMLADLIMLRLLTLAGKYVALQKLVIGRVIDLGNIHTVGQEFMTVIRASRPKNHLLNVLRKLYIAVALRR
2. MFVQSALHQLKVAVDTSIQMLDQYTEIDLKIAPIQSKRSLFEMYAHLSLICHADLLILNGSTEKELHTFYKEQTPETIAQMQKTMIQGYDLLSKTFLSYSNEQLAEMKTAYWGISYSRFEWLLEIVAHFYHHRGQIHILLCEHMKDPNIPLFQ

Key:
1. failed
2. not failed
